# credit: patent US9868748B2

Assayed system: full-length RORγt in Jurkat cells (Homo sapiens (Human), UniProt P51449)
Sequence (P51449 other isoform, or with tags, fused parts or gaps): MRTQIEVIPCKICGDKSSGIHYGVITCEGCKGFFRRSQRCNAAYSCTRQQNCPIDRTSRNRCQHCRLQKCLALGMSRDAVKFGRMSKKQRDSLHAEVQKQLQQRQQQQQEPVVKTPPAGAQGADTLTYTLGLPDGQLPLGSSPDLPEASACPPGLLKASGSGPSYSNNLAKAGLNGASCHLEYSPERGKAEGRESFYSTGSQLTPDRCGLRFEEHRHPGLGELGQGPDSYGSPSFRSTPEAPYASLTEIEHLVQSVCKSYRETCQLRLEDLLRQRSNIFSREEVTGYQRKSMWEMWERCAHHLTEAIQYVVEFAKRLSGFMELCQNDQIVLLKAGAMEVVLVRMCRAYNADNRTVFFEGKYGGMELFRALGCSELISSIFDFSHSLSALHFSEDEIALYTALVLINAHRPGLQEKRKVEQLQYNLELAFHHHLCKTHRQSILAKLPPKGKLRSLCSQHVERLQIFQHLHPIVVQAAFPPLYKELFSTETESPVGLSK
Assay summary: RORγt 5xRORE Assay in Jurkat Cells (Assay 2)
Format: cell-based
Study conditions: Nanoluc luciferase reporter, 16-18 hrs, Table 9, read-out: RORγt5X IC50 Range*
Measured endpoint: IC50

Worked cases, answers included:
Cc1cc(C(F)(F)F)nc(N2Cc3sc(NC(=O)Cc4ccc(S(C)(=O)=O)cc4)nc3[C@H]2C(C)C)n1 = > 1000 nM
CCS(=O)(=O)c1ccc(CC(=O)Nc2nc3c(s2)CN(c2ncc(Cl)c(C)n2)[C@H]3C(C)C)cc1 = > 1000 nM

Consider the compound `CCS(=O)(=O)c1ccc(CC(=O)Nc2nc3c(s2)CN(Cc2ccc(F)cc2F)[C@H]3C(C)C)cc1` and give its measured IC50.
> 1000 nM

Consider the compound CCS(=O)(=O)c1ccc(CC(=O)Nc2nc3c(s2)CN(C2CCC(C(F)(F)F)CC2)[C@H]3C(C)C)cc1 (stereo partly shown) and give its measured IC50.
100 to 1000 nM

Consider the compound `CCS(=O)(=O)c1ccc(CC(=O)Nc2nc3c(s2)CN(C[C@H]2CC[C@H](OC)CC2)[C@H]3C(C)C)cc1` and give its measured IC50.
100 to 1000 nM

Consider the compound CC(C)[C@@H]1c2nc(NC(=O)Cc3ccc(S(C)(=O)=O)cc3)sc2CN1[C@H](C)c1ccc(C(F)(F)F)cc1 (single isomer, unassigned) and give its measured IC50.
100 to 1000 nM

Consider the compound CCS(=O)(=O)c1ccc(CC(=O)Nc2nc3c(s2)CN(C[C@H]2CC[C@@H](C(F)(F)F)NC2)[C@H]3C(C)C)cc1 (single isomer, unassigned) and give its measured IC50.
> 1000 nM

* * *

Assayed system: full-length RORγt in Jurkat cells (Homo sapiens (Human), UniProt P51449)
Assay summary: RORγt 5xRORE Assay in Jurkat Cells (Assay 2)
Type: cell-based
Study conditions: Nanoluc luciferase reporter, 16-18 hrs, Table 9, read-out: RORγt5X IC50 Range*
Procedure: [formula] RORγt 5xRORE Assay in Jurkat Cells (Assay 2) Compounds of the present invention were tested for RORγ inverse agonist activity in a cell-based, transcriptional activity assay. Secreted Nanoluc® luciferase was used as a reporter for transcriptional activity of the full-length RORγt in Jurkat cells (ATCC, Cat. # TIB-152). […] Luciferase activity in the conditioned supernatants was determined with NanoGlo® assay reagents (Promega, Cat. # N1130).
Reported IC50 values follow for various compounds

Worked cases, answers included:
CCS(=O)(=O)c1ccc(CC(=O)Nc2nc3c(s2)CN(C[C@H]2CCCCO2)[C@H]3C(C)C)cc1 (relative stereo) = > 1 µM
CCS(=O)(=O)c1ccc(CC(=O)Nc2nc3c(s2)CN(c2cnc(C(F)(F)F)cn2)[C@H]3C(C)C)cc1 = > 1 µM
CC(C)[C@H]1c2nc(NC(=O)Cc3ccc(S(C)(=O)=O)cc3)sc2CN1Cc1ccn(C(F)F)c(=O)c1 = 0.1 to 1 µM
CCS(=O)(=O)c1ccc(CC(=O)Nc2nc3c(s2)CN(C[C@H]2CC[C@](C)(C#N)CC2)[C@H]3C(C)C)nc1 (single isomer, unassigned) = > 1 µM
CC[C@@]1(C)c2nc(NC(=O)Cc3ccc(S(=O)(=O)CC)cc3)sc2CN1Cc1ccc(C#N)cc1 = 0.1 to 1 µM
CCS(=O)(=O)c1ccc(CC(=O)Nc2nc3c(s2)CN(Cc2cccc(C4CC4)c2)[C@@H]3C(C)C)cc1 = > 1 µM

Consider the compound `CC(C)[C@@H]1c2nc(NC(=O)Cc3ccc(S(C)(=O)=O)cc3)sc2CN1Cc1ccc(Cl)cc1` and give its measured IC50.
0.1 to 1 µM

* * *

Reported pKi values follow for various compounds
Assayed system: recombinant RORγ Ligand Binding Domain (LBD) protein (Homo sapiens (Human), UniProt P51449)
Sequence (P51449 269-508): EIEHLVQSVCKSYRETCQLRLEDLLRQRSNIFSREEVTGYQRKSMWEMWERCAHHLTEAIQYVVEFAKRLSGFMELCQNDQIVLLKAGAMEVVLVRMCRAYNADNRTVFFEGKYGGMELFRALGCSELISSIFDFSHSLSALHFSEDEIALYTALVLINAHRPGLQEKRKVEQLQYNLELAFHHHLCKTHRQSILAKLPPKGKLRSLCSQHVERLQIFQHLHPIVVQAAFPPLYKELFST
Assay summary: Radio-Ligand RORγ Binding Assay (Assay 1)
Study conditions: competition with 25-hydroxy [26,27-3H]-cholesterol, SPA; Table 9; read-out: RORγ Binding Ki Range*
pKi: −log10 of the molar value.

Worked cases, answers included:
CC[C@@H](C)[C@@H]1c2nc(NC(=O)Cc3ccc(S(C)(=O)=O)cc3)sc2CN1Cc1ccc(OC(F)(F)F)cc1 = 6.00 to 7.00
CCS(=O)(=O)c1ccc(CC(=O)Nc2nc3c(s2)CN([C@H](C)Cc2ccc(Cl)cc2)[C@H]3C(C)C)cc1 (single isomer, unassigned) = > 7.00
CC(C)[C@@H]1c2nc(NC(=O)Cc3ccc(S(C)(=O)=O)cc3)sc2CN1Cc1ccc(OC(F)F)cc1F = 6.00 to 7.00
CCS(=O)(=O)c1ccc(CC(=O)Nc2nc3c(s2)CN(Cc2cc[n+]([O-])cc2)[C@H]3C(C)C)cc1 = 6.00 to 7.00
CCS(=O)(=O)c1ccc(CC(=O)Nc2nc3c(s2)CN([C@H]2COc4cc(Cl)ccc42)[C@H]3C(C)C)cc1 (relative stereo) = > 7.00

Consider the compound CCS(=O)(=O)c1ccc(CC(=O)Nc2nc3c(s2)CN([C@H](C)c2ccc(C#N)cn2)[C@H]3C(C)C)cc1 (single isomer, unassigned) and give its measured pKi.
> 7.00

Consider the compound `CC1(C)c2nc(NC(=O)Cc3ccc(S(C)(=O)=O)cc3)sc2CN1c1nccc(C(F)(F)F)n1` and give its measured pKi.
6.00 to 7.00

* * *

Assayed system: full-length RORγt in Jurkat cells (Homo sapiens (Human))
Assay summary: RORγt 5xRORE Assay in Jurkat Cells (Assay 2)
Format: cell-based
Study conditions: Nanoluc luciferase reporter, 16-18 hrs, Table 8, read-out: RORγt5X IC50 Range*
Measured endpoint: IC50

Worked cases, answers included:
CCS(=O)(=O)c1ccc(CC(=O)Nc2nc3c(s2)CN(Cc2cc(C)c(C#N)cn2)[C@H]3C(C)C)cc1 = < 100 nM
CCS(=O)(=O)c1ccc(CC(=O)Nc2nc3c(s2)CN(Cc2ccc(C)cc2)[C@H]3C(C)C)cc1 = < 100 nM
CCS(=O)(=O)c1ccc(CC(=O)Nc2nc3c(s2)CN(Cc2ccc(C#N)cc2)[C@H]3C(C)C)nc1 = < 100 nM

Consider the molecule `CCS(=O)(=O)c1ccc(CC(=O)Nc2nc3c(s2)CN(Cc2ccc(C#N)cc2F)[C@H]3C(C)C)cc1` and give its measured IC50.
< 100 nM

Consider the molecule `CCS(=O)(=O)c1ccc(CNC(=O)c2nc3c(s2)CN(Cc2ccc(C#N)cc2)[C@H]3C(C)C)cc1` and give its measured IC50.
< 100 nM

* * *

Assayed system: recombinant RORγ Ligand Binding Domain (LBD) protein (Homo sapiens (Human), UniProt P51449)
Assay summary: Radio-Ligand RORγ Binding Assay (Assay 1)
Study conditions: competition with 25-hydroxy [26,27-3H]-cholesterol, SPA; Table 9; read-out: RORγ Binding Ki Range*
Reported Ki values follow for various compounds

Worked cases, answers included:
CCS(=O)(=O)c1ccc(CC(=O)Nc2nc3c(s2)CN([C@H](C)Cc2ccc(F)cc2)[C@@H]3C(C)C)cc1 = < 0.1 µM
CCS(=O)(=O)c1ccc(CNC(=O)c2nc3c(s2)CN(C[C@H]2CN(C(=O)OC(C)(C)C)CCO2)[C@H]3C(C)C)cc1 (relative stereo) = < 0.1 µM
Cc1nnc(-c2ccc(CN3Cc4sc(NC(=O)Cc5ccc(S(C)(=O)=O)cc5)nc4[C@@H]3C(C)C)cc2)o1 = < 0.1 µM

Turning to the following compound.
Consider the compound `CCS(=O)(=O)c1ccc(CC(=O)Nc2nc3c(s2)CN(Cc2cccc(C4CC4)c2)[C@@H]3C(C)C)cc1` and give its measured Ki.
< 0.1 µM

* * *

Assayed system: full-length RORγt in Jurkat cells (Homo sapiens (Human), UniProt P51449)
Assay summary: RORγt 5xRORE Assay in Jurkat Cells (Assay 2)
Type: cell-based
Study conditions: Nanoluc luciferase reporter, 16-18 hrs, Table 9, read-out: RORγt5X IC50 Range*
Measured endpoint: IC50

CC(C)[C@H]1c2nc(NC(=O)Cc3ccc(S(C)(=O)=O)cc3)sc2CN1Cc1ccc(C(F)(F)F)nn1 = 0.1 to 1 µM
CCOC(=O)c1cnc(N2Cc3sc(NC(=O)Cc4ccc(S(=O)(=O)CC)cc4)nc3[C@]2(C)C(C)C)nc1C(F)(F)F = > 1 µM
CC(C)[C@H]1c2nc(NC(=O)Cc3ccc(C#N)cc3)sc2CN1Cc1ccc(C#N)c(Cl)c1 = 0.1 to 1 µM
CCS(=O)(=O)c1ccc(CC(=O)Nc2nc3c(s2)CN(Cc2ccc(C(F)(F)F)c(F)c2)[C@@H]3C(C)C)cc1 = 0.1 to 1 µM
CCS(=O)(=O)c1ccc(CC(=O)Nc2nc3c(s2)CN(C[C@H]2CC[C@@H](C(F)(F)F)N(C)C2)[C@H]3C(C)C)cc1 (relative stereo) = > 1 µM
CC(C)[C@H]1c2nc(NC(=O)Cc3ccc(S(C)(=O)=O)cc3)sc2CN1[C@H](C)c1ccc(Cl)cn1 (single isomer, unassigned) = 0.1 to 1 µM

Turning to the following compound.
Consider the compound `CCS(=O)(=O)c1ccc(CC(=O)Nc2nc3c(s2)CN(Cc2ccc(OC(F)(F)F)c(Cl)c2)[C@H]3C(C)C)nc1` and give its measured IC50.
< 0.1 µM
